Property: Bliss interaction score; scope: individual molecules
Tested on: B. subtilis 168
PROTOCOL SUMMARY: Bliss interaction score (quartile over a dose matrix) (fitness difference); higher = more antagonism (negative = synergy);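 further: first quartile when negative (synergy) and third quartile when positive (antagonism)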
READOUT LABEL: Bliss interaction score

{"columns": ["MOLECULE", "RECORDED VALUE"],
 "data": [
  ["CC(=O)Oc1ccccc1C(=O)O [Acetylsalicylicacid] + C1=CC(=CC(=C1)Cl)NN=C(C#N)C#N [CCCP]", -0.0436],
  ["CO/N=C(\\C(=O)N[C@@H]1C(=O)N2C(C(=O)O)=C(COC(C)=O)CS[C@H]12)c1csc(N)n1 [Cefotaxime] + CC(=O)NC[C@H]1CN(c2ccc(N3CCOCC3)c(F)c2)C(=O)O1 [Linezolid]", 0.0544],
  ["COc1cccc2c1C(=O)c1c(O)c3c(c(O)c1C2=O)C[C@@](O)(C(=O)CO)C[C@@H]3O[C@H]1C[C@H](N)[C@H](O)[C@H](C)O1 [Doxorubicin] + CN[C@@H]1[C@H](O)[C@H](NC)[C@H]2O[C@@]3(O)C(=O)C[C@@H](C)O[C@H]3O[C@@H]2[C@H]1O [Spectinomycin]", 0.0605],
  ["CO/N=C(\\C(=O)N[C@@H]1C(=O)N2C(C(=O)O)=C(COC(C)=O)CS[C@H]12)c1csc(N)n1 [Cefotaxime] + CCN(CC)CCOC(=O)c1ccc(N)cc1 [Procaine]", 0.0852],
  ["COc1cccc2c1C(=O)c1c(O)c3c(c(O)c1C2=O)C[C@@](O)(C(=O)CO)C[C@@H]3O[C@H]1C[C@H](N)[C@H](O)[C@H](C)O1 [Doxorubicin] + Cc1onc(-c2ccccc2)c1C(=O)N[C@@H]1C(=O)N2[C@@H]1SC(C)(C)[C@@H]2C(=O)O [Oxacillin]", 0.0758],
  ["CC(=O)Oc1ccccc1C(=O)O [Acetylsalicylicacid] + C/C(=C\\C(=O)OCCCCCCCCC(=O)O)C[C@@H]1OC[C@H](C[C@@H]2O[C@H]2[C@@H](C)[C@H](C)O)[C@@H](O)[C@H]1O [Pseudomonic acid]", -0.2],
  ["C[C@H]1c2cccc(O)c2C(=O)C2=C(O)[C@]3(O)C(=O)C(C(N)=O)=C(O)[C@@H](N(C)C)[C@@H]3[C@@H](O)[C@@H]21 [Doxycycline] + CCN(CC)CCOC(=O)c1ccc(N)cc1 [Procaine]", -0.0366],
  ["O=C(O)c1cn(C2CC2)c2cc(N3CCNCC3)c(F)cc2c1=O [Ciprofloxacin] + C[C@H]1c2cccc(O)c2C(=O)C2=C(O)[C@]3(O)C(=O)C(C(N)=O)=C(O)[C@@H](N(C)C)[C@@H]3[C@@H](O)[C@@H]21 [Doxycycline]", 0.183],
  ["CO/N=C(\\C(=O)N[C@@H]1C(=O)N2C(C(=O)O)=C(COC(C)=O)CS[C@H]12)c1csc(N)n1 [Cefotaxime] + CO/N=C(\\C(=O)N[C@@H]1C(=O)N2C(C(=O)O)=C(COC(N)=O)CS[C@H]12)c1ccco1 [Cefuroxime]", 0.0852]
]}

---

Test system: S. pneumoniae D39V
PROTOCOL SUMMARY: Bliss interaction score (quartile over a dose matrix) (fitness difference); higher = more antagonism (negative = synergy)
true means recorded Bliss interaction score is 0.07 or above; false means it is below 0.07.

{"columns": ["COMPOUND", "ASSIGNED CATEGORY"],
 "data": [
  ["Cc1ncc([N+](=O)[O-])n1CCO [Metronidazole] + CN(C)c1cc(NC(=O)CNC(C)(C)C)c(O)c2c1C[C@H]1C[C@H]3[C@H](N(C)C)C(O)=C(C(N)=O)C(=O)[C@@]3(O)C(O)=C1C2=O [Tigecycline]", "false"],
  ["CN(C)[C@@H]1C(O)=C(C(N)=O)C(=O)[C@@]2(O)C(O)=C3C(=O)c4c(O)ccc(Cl)c4[C@@](C)(O)[C@H]3C[C@@H]12 [Clortetracycline] + CC[C@H]1OC(=O)[C@H](C)[C@@H](O[C@H]2C[C@@](C)(OC)[C@@H](O)[C@H](C)O2)[C@H](C)[C@@H](O[C@@H]2O[C@H](C)C[C@H](N(C)C)[C@H]2O)[C@](C)(O)C[C@@H](C)C(=O)[C@H](C)[C@@H](O)[C@]1(C)O [Erythromycin]", "false"],
  ["CN(C)[C@@H]1C(O)=C(C(N)=O)C(=O)[C@@]2(O)C(O)=C3C(=O)c4c(O)ccc(Cl)c4[C@@](C)(O)[C@H]3C[C@@H]12 [Clortetracycline] + C[C@H]1COc2c(N3CCN(C)CC3)c(F)cc3c(=O)c(C(=O)O)cn1c23 [Levofloxacin]", "false"],
  ["N#CC(C#N)=NNc1cccc(Cl)c1 [CCCP] + CC(=O)NC[C@H]1CN(c2ccc(N3CCOCC3)c(F)c2)C(=O)O1 [Linezolid]", "true"],
  ["COc1cccc2c1C(=O)c1c(O)c3c(c(O)c1C2=O)C[C@@](O)(C(=O)CO)C[C@@H]3O[C@H]1C[C@H](N)[C@H](O)[C@H](C)O1 [Doxorubicin] + CN[C@@H]1[C@H](O)[C@H](NC)[C@H]2O[C@@]3(O)C(=O)C[C@@H](C)O[C@H]3O[C@@H]2[C@H]1O [Spectinomycin]", "false"],
  ["C[C@H]1c2cccc(O)c2C(=O)C2=C(O)[C@]3(O)C(=O)C(C(N)=O)=C(O)[C@@H](N(C)C)[C@@H]3[C@@H](O)[C@@H]21 [Doxycycline] + Cc1onc(-c2ccccc2)c1C(=O)N[C@@H]1C(=O)N2[C@@H]1SC(C)(C)[C@@H]2C(=O)O [Oxacillin]", "true"],
  ["C[C@H]1c2cccc(O)c2C(=O)C2=C(O)[C@]3(O)C(=O)C(C(N)=O)=C(O)[C@@H](N(C)C)[C@@H]3[C@@H](O)[C@@H]21 [Doxycycline] + CC(=O)NC[C@H]1CN(c2ccc(N3CCOCC3)c(F)c2)C(=O)O1 [Linezolid]", "false"],
  ["CO/N=C(\\C(=O)N[C@@H]1C(=O)N2C(C(=O)O)=C(COC(C)=O)CS[C@H]12)c1csc(N)n1 [Cefotaxime] + COc1cc(Cc2cnc(N)nc2N)cc(OC)c1OC [Trimethoprim]", "true"],
  ["CN(C)[C@@H]1C(O)=C(C(N)=O)C(=O)[C@@]2(O)C(O)=C3C(=O)c4c(O)ccc(Cl)c4[C@@](C)(O)[C@H]3C[C@@H]12 [Clortetracycline] + Oc1cc(Cl)ccc1Oc1ccc(Cl)cc1Cl [Triclosan]", "true"],
  ["CO/N=C(\\C(=O)N[C@@H]1C(=O)N2C(C(=O)O)=C(COC(N)=O)CS[C@H]12)c1ccco1 [Cefuroxime] + CN(C)[C@@H]1C(O)=C(C(N)=O)C(=O)[C@@]2(O)C(O)=C3C(=O)c4c(O)ccc(Cl)c4[C@@](C)(O)[C@H]3C[C@@H]12 [Clortetracycline]", "true"]
]}

meta.source: the supplement of paper PMC10627819
